- Test system: L1210 leukemia ip in BDF1 mice, survival T/C
- METHOD_NOTES: NCI In Vivo Anticancer Drug Screen. Data for tumor model L1210 Leukemia (intraperitoneal) in B6D2F1 (BDF1) mice
- SETTINGS: endpoint: mean survival time; dose: 200.0 mg/kg/injection; schedule: Q04DX003 (ip); vehicle: Klucel (hydroxypropylcellulose) (HPC); higher = longer survival
Inconclusive results and toxic doses are left out.
RESULT_TYPE: T/C

Worked cases, answers included:
COc1cc(C(=O)CCC(=O)O)cc(OC)c1OC	102 % of control
Nc1ccc(S(=O)(=O)c2ccc(N)cc2)cc1	101 % of control
COc1ccc(C(CC(=O)c2ccc3c(c2)OCO3)C(=O)O)cc1OC (stereo not drawn)	96 % of control

Prompt: Lab request: please report T/C under test system L1210 leukemia ip in BDF1 mice, survival T/C for COc1cc2c(cc1OC)N(S(=O)(=O)c1ccc(C)cc1)CCCC2=O
Response: 93 % of control

Prompt: Give the reported T/C for O=C(Nc1ccc(F)c(Cl)c1)OCC1CCCO1 (stereo not drawn) (system: L1210 leukemia ip in BDF1 mice, survival T/C).
Response: 89 % of control

Prompt: Notebook: pull reported T/C for L1210 leukemia ip in BDF1 mice, survival T/C, entry Clc1ccc(COCc2ccccc2COCc2ccc(Cl)cc2Cl)c(Cl)c1
Response: 96 % of control

Prompt: I'm curious: which T/C was measured for NC(CSCc1ccccc1)C(=O)O (stereo not drawn) tested on L1210 leukemia ip in BDF1 mice, survival T/C?
Response: 94 % of control

Prompt: Under L1210 leukemia ip in BDF1 mice, survival T/C: T/C value of Cc1ccccc1CC1(Br)CC(C)(C)c2ccccc2C1=O (stereo not drawn) ?
Response: 106 % of control

Prompt: Item: CCOC(=O)/C(C#N)=C\C=C\c1ccccc1 Test system: L1210 leukemia ip in BDF1 mice, survival T/C Read-out: T/C Value: ?
Response: 98 % of control

Prompt: Tell me reported T/C for CC(=O)CC(=O)c1cc(C(C)=O)c(O)c(C(C)=O)c1 , tested with L1210 leukemia ip in BDF1 mice, survival T/C.
Response: 103 % of control

Prompt: Request: T/C, test system L1210 leukemia ip in BDF1 mice, survival T/C, entry O=C(OCC1CCCO1)c1ccccc1O (stereo not drawn)
Response: 100 % of control

Prompt: For L1210 leukemia ip in BDF1 mice, survival T/C, provide T/C of Cc1nc(Cl)cc(Cl)n1 please.
Response: 90 % of control

Prompt: # value lookup — system L1210 leukemia ip in BDF1 mice, survival T/C, readout T/C, item O=C(c1ccccc1)C1CCCCCC1
Response: 98 % of control

---

- System: L1210 leukemia ip in BDF1 mice, survival T/C
- METHOD_NOTES: NCI In Vivo Anticancer Drug Screen. Data for tumor model L1210 Leukemia (intraperitoneal) in B6D2F1 (BDF1) mice
- SETTINGS: endpoint: mean survival time; dose: 100.0 mg/kg/injection; schedule: Q01DX001 (ip); vehicle: Klucel (hydroxypropylcellulose) (HPC); higher = longer survival
Inconclusive results and toxic doses are left out. Peptide text beside a SMILES is read from it. * marks the point of attachment. Cbz = O=C(OCc1ccccc1)*; CH2Cl = ClC*
Listing of entries alongside the reported T/C.

Cc1nc2c3nc(C)oc3c3ccccc3c2o1	97 % of control
CCCCCCCCCCCCCCCCN(C(=S)NC(=O)c1ccccc1)c1ccccc1	96 % of control

Prompt: May I ask what T/C has been recorded for O=C(NC(=O)C(Cl)Cl)Nc1cccc2c1-c1ccccc1C2 ?
Response: 94 % of control

Prompt: Please report the recorded T/C for CC(CO)CCC(=O)C(C)C1C(=O)CC2CC3CC(O)CCC3(C)CC21C (stereo not given) .
Response: 98 % of control

Prompt: Which T/C is reported for this compound? CC(C)CC(NC(=O)CNC(=O)OCc1ccccc1)C(=O)NC(Cc1ccccc1)C(=O)CCl (stereo not drawn) (Cbz-Gly-Leu-Phe-CH2Cl; configuration not given here)
Response: 92 % of control
